# Read-out: Forkhead box O3 (FOXO3), FOXO3 (gene 2309)
# EXPERIMENT: LTEA_HepaRG_FOXO3: Life Technologies and Expression Analysis (LTEA) Assay for Forkhead box O3 (FOXO3) using HepaRG (AID 2283459)
# EXPERIMENTAL_SETUP: mRNA level, 48 h; actives raise or lower the signal
The source made the active and inactive calls. Rule for the calls: active = hit-call score of the fitted dose curve at least 0.9, where 1 is the maximum; inactive = score below 0.9.

{"COMPOUND": "CC(Cc1ccc(OCC(=O)O)cc1)NCC(O)c1csc(C(F)(F)F)n1 (stereo not drawn)", "outcome": "inactive"}
{"COMPOUND": "CCNc1nc(Cl)nc(NC(C)(C)C)n1", "outcome": "inactive"}
{"COMPOUND": "c1nc[nH]n1", "outcome": "inactive"}
{"COMPOUND": "CCCCN(CCCC)SN(C)C(=O)Oc1cccc2c1OC(C)(C)C2", "outcome": "inactive"}
{"COMPOUND": "OCC1CO1 (stereo not drawn)", "outcome": "inactive"}
{"COMPOUND": "ClC(Cl)c1ccccc1", "outcome": "inactive"}
{"COMPOUND": "CCOP(=S)(OCC)SCSCC", "outcome": "inactive"}
{"COMPOUND": "O=P(Oc1ccccc1)(Oc1ccccc1)Oc1ccccc1", "outcome": "inactive"}
